target: Human CD137 ECD (human)
Sequence (chain, as listed by the source limits assumed): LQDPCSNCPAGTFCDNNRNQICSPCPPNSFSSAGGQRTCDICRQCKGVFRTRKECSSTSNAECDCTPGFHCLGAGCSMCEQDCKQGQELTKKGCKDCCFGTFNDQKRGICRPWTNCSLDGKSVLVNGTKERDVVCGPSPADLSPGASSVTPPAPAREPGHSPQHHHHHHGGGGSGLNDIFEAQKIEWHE
assay.procedure: SPR, vs parent H183/L072
metric.name: fold change of affinity (fold)
Field format: number, assumed fold, no unit text.

Write down fold change of affinity measured for item dBBDu183H G100hF / dBBDu072L (antibody, name in Kabat numbering, V domains shown) VH: QVQLVESGGGLVQPGRSLRLSCAASGFTFSNAWMHWVRQAPGKGLEWVAQIKDKGNAYAAYYAPSVKGRFTISRDDSKNSIYLQMNSLKTEDTAVYYCHYVHYASASTVLPAFFVDAWGQGTTVTVSS VL: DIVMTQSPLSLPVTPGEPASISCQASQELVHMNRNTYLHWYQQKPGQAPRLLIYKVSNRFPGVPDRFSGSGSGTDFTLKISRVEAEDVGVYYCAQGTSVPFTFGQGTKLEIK
0

Write down fold change of affinity measured for item dBBDu183H A100fW / dBBDu072L (antibody, name in Kabat numbering, V domains shown) VH: QVQLVESGGGLVQPGRSLRLSCAASGFTFSNAWMHWVRQAPGKGLEWVAQIKDKGNAYAAYYAPSVKGRFTISRDDSKNSIYLQMNSLKTEDTAVYYCHYVHYASASTVLPWFGVDAWGQGTTVTVSS VL: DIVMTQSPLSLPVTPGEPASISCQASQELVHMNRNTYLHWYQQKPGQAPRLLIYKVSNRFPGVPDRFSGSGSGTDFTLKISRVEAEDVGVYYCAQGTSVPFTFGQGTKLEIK
0

Write down fold change of affinity measured for item dBBDu183H S100aQ / dBBDu072L (antibody, name in Kabat numbering, V domains shown) VH: QVQLVESGGGLVQPGRSLRLSCAASGFTFSNAWMHWVRQAPGKGLEWVAQIKDKGNAYAAYYAPSVKGRFTISRDDSKNSIYLQMNSLKTEDTAVYYCHYVHYASAQTVLPAFGVDAWGQGTTVTVSS VL: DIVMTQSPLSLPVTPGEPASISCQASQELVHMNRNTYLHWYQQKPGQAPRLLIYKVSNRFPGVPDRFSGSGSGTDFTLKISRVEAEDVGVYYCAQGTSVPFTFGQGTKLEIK
0
